# targetUnderTest: menin/MLL (terbium chelate-labeled menin, FITC-MBM1 peptide) (Homo sapiens, UniProt O00255, T541A)
# Construct: Menin (a.a 1-610-6xhis tag)
# Sequence (O00255 with tags, fused parts or gaps T541A): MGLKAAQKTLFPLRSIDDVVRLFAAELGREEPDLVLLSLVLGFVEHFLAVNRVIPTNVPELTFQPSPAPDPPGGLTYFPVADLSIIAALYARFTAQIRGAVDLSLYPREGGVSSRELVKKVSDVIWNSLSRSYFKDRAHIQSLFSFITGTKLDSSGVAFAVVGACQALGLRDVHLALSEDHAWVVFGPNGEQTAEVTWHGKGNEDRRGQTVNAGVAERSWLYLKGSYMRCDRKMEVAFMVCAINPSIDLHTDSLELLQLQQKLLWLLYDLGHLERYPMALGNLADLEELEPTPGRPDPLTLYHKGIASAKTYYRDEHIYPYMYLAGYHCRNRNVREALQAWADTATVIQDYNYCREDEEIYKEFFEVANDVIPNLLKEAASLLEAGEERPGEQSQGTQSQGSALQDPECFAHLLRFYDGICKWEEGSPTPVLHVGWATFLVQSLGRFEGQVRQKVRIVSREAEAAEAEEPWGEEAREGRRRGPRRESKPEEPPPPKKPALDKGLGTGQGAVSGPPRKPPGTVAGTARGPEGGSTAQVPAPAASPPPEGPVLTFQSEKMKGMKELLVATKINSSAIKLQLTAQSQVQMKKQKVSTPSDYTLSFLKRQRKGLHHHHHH
# assayText: Menin/MLL homogenous time-resolved fluorescence (HTRF) assay
# testContext: 30 min incubation
# Protocol: 1) Menin/MLL Homogenous Time-Resolved Fluorescence (HTRF) Assay […] Compound potencies were determined by first calculating % inhibition at each compound concentration according to equation 1: […] Where LC and HC are the HTRF values of the assay in the presence or absence of a saturating concentration of a compound that competes with FITC-MBM1 for binding to menin, and HTRF^compound is the measured HTRF value in the presence of the test compound. […]
propertyMeasured: IC50 (nM)

1. CC(C)[C@H]([C@H]1C[C@@H](N2C[C@H](O)C3(CCC3)C2)C1)N1CC2(CCN(c3ncnnc3Oc3ccc(F)cc3-c3cncnc3C3CC3)C2)C1 (single isomer, unassigned) [Compound 214] | 0.1

(I) COc1ncc(-c2cc(F)ccc2Oc2nncnc2N2CCC3(C2)CN(C(C(C)C)[C@H]2C[C@@H](NC(C)=O)C2)C3)c(C2CC2)n1 (some centres unmarked) [Compound 500]
(II) CC(C)[C@H]([C@H]1C[C@@H](N2CC3(CCS(=O)(=O)CC3)C2)C1)N1CC2(CCN(c3ncnnc3Oc3ccc(F)cc3-c3cncnc3C3CC3)C2)C1 (single isomer, unassigned) [Compound 249]
(III) CC(C)[C@@H]([C@H]1C[C@H](N2C[C@H]3COC[C@H]3C2)C1)N1CC2(CCN(c3ncnnc3Oc3ccc(F)cc3-c3cncnc3C3CC3)C2)C1 (single isomer, unassigned) [Compound 245]
(IV) CC(C)[C@@H](C1CC(C)(O)C1)N1CC2(CCN(c3ncnnc3Oc3ccc(F)cc3-c3cncnc3C3CC3)C2)C1 (single isomer, unassigned) [Compound 160]
Please put the entries in order of rising IC50. Lab note: final answer is the ordered label list.
II, I, III, IV
(II: 0.1 nM, I: 0.3 nM, III: 0.6 nM, IV: 23.2 nM)

* * *

The reader will find reported pIC50 values listed item by item below.
# Tested on: KO-52 cells
# assayText: Proliferation assay, spheroid-like growth, KO-52 (MLL wildtype control cell line)
# Format: cell-based, human
# testContext: Homo sapiens, 192 h, KO-52 control cells, 8 days, confluence as measure of spheroid size; read-out: spheroid assay_OneTime KO-52 IC50
FYI, pIC50 means -log10 of a concentration in mol per litre.

Solved entries:
1) CC(C)[C@@H]([C@H]1C[C@@H](N2CC[C@](C)(O)C2)C1)N1CC2(CCN(c3ncnnc3Oc3ccc(F)cc3-c3cnncc3C3CC3)C2)C1 (single isomer, unassigned) | 4.99
2) CC(C)C(C1CC(C)(O)C1)N1CC2(CCN(c3ncnnc3Oc3ccc(F)cc3-c3cncnc3C3CC3)C2)C1 (single isomer, unassigned) | 5.96
3) CC(C)[C@H]([C@H]1C[C@@H](N2CCN(C(=O)N(C)C)CC2)C1)N1CC2(CCN(c3ncnnc3Oc3ccc(F)cc3-c3cncnc3C3CC3)C2)C1 (single isomer, unassigned) | 5.52
4) CC(C)[C@H]([C@H]1C[C@@H](N2C[C@@H](O)C3(CC3)C2)C1)N1CC2(CCN(c3ncnnc3Oc3ccc(F)cc3-c3cncnc3C3CC3)C2)C1 (single isomer, unassigned) | 5.23
5) COC1CCN([C@H]2C[C@@H](C(C(C)C)N3CC4(CCN(c5ncnnc5Oc5ccc(F)cc5-c5cncnc5C5CC5)C4)C3)C2)CC1 (stereo partly shown) [Compound 124] | 5.60

Look up pIC50 for this molecule: CC(C)C([C@H]1C[C@H](N2CCC(F)(F)CC2)C1)N1CC2(CCN(c3ncnnc3Oc3ccc(F)cc3-c3cncnc3C3CC3)C2)C1 (stereo partly shown)
5.10

Look up pIC50 for this molecule: Fc1ccc(Oc2nncnc2N2CCC3(C2)CN(C(C2CCN(CC4COC4)CC2)C24CC(C2)C4)C3)c(-c2nnccc2C2CC2)c1 (stereo not shown)
4.94

Look up pIC50 for this molecule: CC(C)[C@@H]([C@H]1C[C@@H](N2CCC(S(C)(=O)=O)CC2)C1)N1CC2(CCN(c3ncnnc3Oc3ccc(F)cc3-c3cccnc3C3CC3)C2)C1 (single isomer, unassigned)
5.97

* * *

# System: MOLM14 cells
# assayText: Proliferation assay, spheroid-like growth, MOLM14 (MLL-AF9 rearranged)
# Type: cell-based, human
# testContext: Homo sapiens, MOLM-14, 192 h, 8 days, confluence as measure of spheroid size, read-out: spheroid assay_OneTime MOLM14 IC50
propertyMeasured: IC50 (nM)

1) CC(C)[C@H](C1CCN(CC2(O)CC2)CC1)N1CC2(CCN(c3ncnnc3Oc3ccc(F)cc3-c3cncnc3C3CC3)C2)C1 (single isomer, unassigned) | 66
2) CC(C)C([C@H]1C[C@@H](N2CCC(C)(O)CC2)C1)N1CC2(CCN(c3ncnnc3Oc3ccc(F)cc3-c3cncnc3C3CC3)C2)C1 (stereo partly shown) | 11
3) CC(C)[C@H]([C@H]1C[C@H](N2CCC3(C2)CS(=O)(=O)C3)C1)N1CC2(CCN(c3ncnnc3Oc3ccc(F)cc3-c3cncnc3C3CC3)C2)C1 (single isomer, unassigned) | 190
4) Cc1nnc(C2CC2)n1-c1cc(F)ccc1Oc1nncnc1N1CCC2(C1)CN([C@H](C(C)C)C1CC(N(C)C)C1)C2 (mixture of isomers) | 32
5) CC(=O)N1CCCC12CN([C@H]1C[C@H]([C@@H](C(C)C)N3CC4(CCN(c5ncnnc5Oc5ccc(F)cc5-c5cncnc5C5CC5)C4)C3)C1)C2 (single isomer, unassigned) | 110
6) Cc1ncc(-c2cc(F)ccc2Oc2nncnc2N2CCC3(C2)CN([C@@H](C(C)C)[C@H]2C[C@@H](N4CC5(CN(C(=O)C6CC6)C5)C4)C2)C3)c(C2CC2)n1 | 2
7) CNC(=O)c1cccc(N[C@H]2C[C@@H](C(C(C)C)N3CC4(CCN(c5ncnnc5Oc5ccc(F)cc5-c5cncnc5C5CC5)C4)C3)C2)n1 (single isomer, unassigned) | 7
8) COC1CN([C@H]2C[C@@H]([C@H](C(C)C)N3CC4(CCN(c5ncnnc5Oc5ccc(F)cc5-c5nnccc5C5CC5)C4)C3)C2)C1 (single isomer, unassigned) | 6

(I) CC(C)[C@@H]([C@H]1C[C@]2(COC(=O)N2)C1)N1CC2(CCN(c3ncnnc3Oc3ccc(F)cc3-c3ncccc3C3CC3)C2)C1 (single isomer, unassigned)
(II) CC(C)[C@H]([C@H]1C[C@@H](Nc2ncc(C(N)=O)s2)C1)N1CC2(CCN(c3ncnnc3Oc3ccc(F)cc3-c3cncnc3C3CC3)C2)C1 (single isomer, unassigned)
(III) CC(C)[C@H]([C@H]1C[C@@H](N2CC3(COC3)C2)C1)N1CC2(CCN(c3ncnnc3Oc3ccc(F)cc3-c3cnncc3C3CC3)C2)C1 (single isomer, unassigned)
(IV) CC(C)C([C@H]1C[C@@H](NC(=O)CCN(C)C)C1)N1CC2(CCN(c3ncnnc3Oc3ccc(F)cc3-c3cncnc3C3CC3)C2)C1 (stereo partly shown)
Please put the entries in order of rising IC50. Lab note: final answer is the ordered label list.
II, IV, I, III
(II: 7 nM, IV: 21 nM, I: 30 nM, III: 300 nM)

(a) CC(C)[C@@H]([C@H]1C[C@@H](NC2CCOCC2)C1)N1CC2(CCN(c3ncnnc3Oc3ccc(F)cc3-c3cncnc3C3CC3)C2)C1 (single isomer, unassigned)
(b) CC(C)[C@@H](C1CC2(C1)CN(CC1COC1)C2)N1CC2(CCN(c3ncnnc3Oc3ccc(F)cc3-c3cncnc3C3CC3)C2)C1 (single isomer, unassigned)
(c) CC(C)[C@@H]([C@H]1C[C@@H](N2CCC(S(C)(=O)=O)CC2)C1)N1CC2(CCN(c3ncnnc3Oc3ccc(F)cc3-c3ncncc3C3CC3)C2)C1 (single isomer, unassigned)
Descending sort on IC50 required. Lab note: final answer is the ordered label list.
a, b, c

(a) CC(C)[C@@H]([C@H]1C[C@@H](N2C[C@H]3COC[C@H]3C2)C1)N1CC2(CCN(c3ncnnc3Oc3ccc(F)cc3-c3cnc(C#N)nc3C3CC3)C2)C1
(b) CC(=O)N[C@H]1C[C@@H]([C@@H](C(C)C)N2CC3(CCN(c4ncnnc4Oc4ccc(F)cc4-c4cnccc4C4CC4)C3)C2)C1 (single isomer, unassigned)
Param metric = IC50; output whichever of a , b has the minimum value. Reply briefly: the label of your chosen item.
b
(b: 5 nM, a: 53 nM)

* * *

# System: MOLM14 cells
# assayText: Proliferation assay, spheroid-like growth, MOLM14 (MLL-AF9 rearranged)
# Assay type: cell-based, human
# testContext: Homo sapiens, MOLM-14, 192 h, 8 days, confluence as measure of spheroid size, read-out: spheroid assay_OneTime MOLM14 IC50
propertyMeasured: IC50 (nM)

(a) CNC(=O)c1nnc(N[C@H]2C[C@@H]([C@@H](C(C)C)N3CC4(CCN(c5ncnnc5Oc5ccc(F)cc5-c5cncnc5C5CC5)C4)C3)C2)o1 (single isomer, unassigned)
(b) CO[C@H]1[C@@H]2CN([C@H]3C[C@@H]([C@H](C(C)C)N4CC5(CCN(c6ncnnc6Oc6ccc(F)cc6-c6cnncc6C6CC6)C5)C4)C3)C[C@@H]21 (single isomer, unassigned) [Compound 282a]
(c) CC(C)[C@H]([C@H]1C[C@@H](N2CC3(COC3)C2)C1)N1CC2(CCN(c3ncnnc3Oc3ccc(F)cc3-c3ncccc3C3CC3)C2)C1 (single isomer, unassigned)
Hi! Can you put these in order of IC50, lowest number first? Lab note: final answer is the ordered label list.
c, a, b
